This section presents sequences with their documented RBNS R-value values.
Test system: PyIESI-1 RRM domain (Plasmodium yoelii PY17X_0911200 aa 795-956, GST fusion)
EXPERIMENT: RBNS R-value (6-mer enrichment in protein-bound RNA vs input library) (ratio); higher = stronger binding preference; the methods of the paper give 50 / 100 / 500 nM protein instead
ASSAY CONDITIONS: protein concentration: 1000 nM
Over roughly 4,100 sequences, “RBNS R-value (6-mer enrichment in protein-bound RNA vs input library)” has its median near 0.96; the highest 2% begin near 2.4. This is one part of a sample in which the highest values are shown more often than they occur.
READOUT LABEL: RBNS R-value

[[record]]
polymer_sequence = "CCGGCG"
measured_target = "PyIESI-1 RRM domain (Plasmodium yoelii PY17X_0911200 aa 795-956, GST fusion)"
readout_label = "RBNS R-value"
measured_number = 1.08

[[record]]
polymer_sequence = "UUGAGU"
measured_target = "PyIESI-1 RRM domain (Plasmodium yoelii PY17X_0911200 aa 795-956, GST fusion)"
readout_label = "RBNS R-value"
measured_number = 1.03

[[record]]
polymer_sequence = "UACUUC"
measured_target = "PyIESI-1 RRM domain (Plasmodium yoelii PY17X_0911200 aa 795-956, GST fusion)"
readout_label = "RBNS R-value"
measured_number = 0.702

[[record]]
polymer_sequence = "CGGGUA"
measured_target = "PyIESI-1 RRM domain (Plasmodium yoelii PY17X_0911200 aa 795-956, GST fusion)"
readout_label = "RBNS R-value"
measured_number = 0.9

[[record]]
polymer_sequence = "UCGAUC"
measured_target = "PyIESI-1 RRM domain (Plasmodium yoelii PY17X_0911200 aa 795-956, GST fusion)"
readout_label = "RBNS R-value"
measured_number = 1.11

[[record]]
polymer_sequence = "UAUGAU"
measured_target = "PyIESI-1 RRM domain (Plasmodium yoelii PY17X_0911200 aa 795-956, GST fusion)"
readout_label = "RBNS R-value"
measured_number = 4.9

[[record]]
polymer_sequence = "AACAUA"
measured_target = "PyIESI-1 RRM domain (Plasmodium yoelii PY17X_0911200 aa 795-956, GST fusion)"
readout_label = "RBNS R-value"
measured_number = 0.417

[[record]]
polymer_sequence = "AGGAUG"
measured_target = "PyIESI-1 RRM domain (Plasmodium yoelii PY17X_0911200 aa 795-956, GST fusion)"
readout_label = "RBNS R-value"
measured_number = 1.18

[[record]]
polymer_sequence = "AUUCGC"
measured_target = "PyIESI-1 RRM domain (Plasmodium yoelii PY17X_0911200 aa 795-956, GST fusion)"
readout_label = "RBNS R-value"
measured_number = 1.46

[[record]]
polymer_sequence = "GUCUGG"
measured_target = "PyIESI-1 RRM domain (Plasmodium yoelii PY17X_0911200 aa 795-956, GST fusion)"
readout_label = "RBNS R-value"
measured_number = 0.796

[[record]]
polymer_sequence = "AGGAUC"
measured_target = "PyIESI-1 RRM domain (Plasmodium yoelii PY17X_0911200 aa 795-956, GST fusion)"
readout_label = "RBNS R-value"
measured_number = 0.757

[[record]]
polymer_sequence = "CAGAUG"
measured_target = "PyIESI-1 RRM domain (Plasmodium yoelii PY17X_0911200 aa 795-956, GST fusion)"
readout_label = "RBNS R-value"
measured_number = 1.93

[[record]]
polymer_sequence = "CAUGAU"
measured_target = "PyIESI-1 RRM domain (Plasmodium yoelii PY17X_0911200 aa 795-956, GST fusion)"
readout_label = "RBNS R-value"
measured_number = 5.72

[[record]]
polymer_sequence = "UCGAAU"
measured_target = "PyIESI-1 RRM domain (Plasmodium yoelii PY17X_0911200 aa 795-956, GST fusion)"
readout_label = "RBNS R-value"
measured_number = 0.846

[[record]]
polymer_sequence = "GCUACG"
measured_target = "PyIESI-1 RRM domain (Plasmodium yoelii PY17X_0911200 aa 795-956, GST fusion)"
readout_label = "RBNS R-value"
measured_number = 0.905

[[record]]
polymer_sequence = "UAGAUC"
measured_target = "PyIESI-1 RRM domain (Plasmodium yoelii PY17X_0911200 aa 795-956, GST fusion)"
readout_label = "RBNS R-value"
measured_number = 0.838

[[record]]
polymer_sequence = "CGAACC"
measured_target = "PyIESI-1 RRM domain (Plasmodium yoelii PY17X_0911200 aa 795-956, GST fusion)"
readout_label = "RBNS R-value"
measured_number = 1.06

[[record]]
polymer_sequence = "GUGAUA"
measured_target = "PyIESI-1 RRM domain (Plasmodium yoelii PY17X_0911200 aa 795-956, GST fusion)"
readout_label = "RBNS R-value"
measured_number = 3.2

[[record]]
polymer_sequence = "GUGAUU"
measured_target = "PyIESI-1 RRM domain (Plasmodium yoelii PY17X_0911200 aa 795-956, GST fusion)"
readout_label = "RBNS R-value"
measured_number = 4.44

[[record]]
polymer_sequence = "UAGAUG"
measured_target = "PyIESI-1 RRM domain (Plasmodium yoelii PY17X_0911200 aa 795-956, GST fusion)"
readout_label = "RBNS R-value"
measured_number = 1.73

[[record]]
polymer_sequence = "AUAGUC"
measured_target = "PyIESI-1 RRM domain (Plasmodium yoelii PY17X_0911200 aa 795-956, GST fusion)"
readout_label = "RBNS R-value"
measured_number = 0.627

[[record]]
polymer_sequence = "UCGAUA"
measured_target = "PyIESI-1 RRM domain (Plasmodium yoelii PY17X_0911200 aa 795-956, GST fusion)"
readout_label = "RBNS R-value"
measured_number = 1.29

[[record]]
polymer_sequence = "CUGCCA"
measured_target = "PyIESI-1 RRM domain (Plasmodium yoelii PY17X_0911200 aa 795-956, GST fusion)"
readout_label = "RBNS R-value"
measured_number = 1.07

[[record]]
polymer_sequence = "CGUUUG"
measured_target = "PyIESI-1 RRM domain (Plasmodium yoelii PY17X_0911200 aa 795-956, GST fusion)"
readout_label = "RBNS R-value"
measured_number = 1.08

[[record]]
polymer_sequence = "GGGAUG"
measured_target = "PyIESI-1 RRM domain (Plasmodium yoelii PY17X_0911200 aa 795-956, GST fusion)"
readout_label = "RBNS R-value"
measured_number = 1.27

[[record]]
polymer_sequence = "CGGAUG"
measured_target = "PyIESI-1 RRM domain (Plasmodium yoelii PY17X_0911200 aa 795-956, GST fusion)"
readout_label = "RBNS R-value"
measured_number = 1.18

[[record]]
polymer_sequence = "GAUAUA"
measured_target = "PyIESI-1 RRM domain (Plasmodium yoelii PY17X_0911200 aa 795-956, GST fusion)"
readout_label = "RBNS R-value"
measured_number = 1.53

[[record]]
polymer_sequence = "UUGACC"
measured_target = "PyIESI-1 RRM domain (Plasmodium yoelii PY17X_0911200 aa 795-956, GST fusion)"
readout_label = "RBNS R-value"
measured_number = 1.47

[[record]]
polymer_sequence = "GCGAUC"
measured_target = "PyIESI-1 RRM domain (Plasmodium yoelii PY17X_0911200 aa 795-956, GST fusion)"
readout_label = "RBNS R-value"
measured_number = 1.13

[[record]]
polymer_sequence = "AAUGAG"
measured_target = "PyIESI-1 RRM domain (Plasmodium yoelii PY17X_0911200 aa 795-956, GST fusion)"
readout_label = "RBNS R-value"
measured_number = 1.04

[[record]]
polymer_sequence = "ACAUCG"
measured_target = "PyIESI-1 RRM domain (Plasmodium yoelii PY17X_0911200 aa 795-956, GST fusion)"
readout_label = "RBNS R-value"
measured_number = 0.749

[[record]]
polymer_sequence = "UUGAUU"
measured_target = "PyIESI-1 RRM domain (Plasmodium yoelii PY17X_0911200 aa 795-956, GST fusion)"
readout_label = "RBNS R-value"
measured_number = 6.84

[[record]]
polymer_sequence = "GACUCG"
measured_target = "PyIESI-1 RRM domain (Plasmodium yoelii PY17X_0911200 aa 795-956, GST fusion)"
readout_label = "RBNS R-value"
measured_number = 1.07

[[record]]
polymer_sequence = "CUGACA"
measured_target = "PyIESI-1 RRM domain (Plasmodium yoelii PY17X_0911200 aa 795-956, GST fusion)"
readout_label = "RBNS R-value"
measured_number = 1.26

[[record]]
polymer_sequence = "UUGAAG"
measured_target = "PyIESI-1 RRM domain (Plasmodium yoelii PY17X_0911200 aa 795-956, GST fusion)"
readout_label = "RBNS R-value"
measured_number = 1.08

[[record]]
polymer_sequence = "UCGAUG"
measured_target = "PyIESI-1 RRM domain (Plasmodium yoelii PY17X_0911200 aa 795-956, GST fusion)"
readout_label = "RBNS R-value"
measured_number = 2.37

[[record]]
polymer_sequence = "UGGAUU"
measured_target = "PyIESI-1 RRM domain (Plasmodium yoelii PY17X_0911200 aa 795-956, GST fusion)"
readout_label = "RBNS R-value"
measured_number = 1.01

[[record]]
polymer_sequence = "UCGUGG"
measured_target = "PyIESI-1 RRM domain (Plasmodium yoelii PY17X_0911200 aa 795-956, GST fusion)"
readout_label = "RBNS R-value"
measured_number = 0.782

[[record]]
polymer_sequence = "GCGAUU"
measured_target = "PyIESI-1 RRM domain (Plasmodium yoelii PY17X_0911200 aa 795-956, GST fusion)"
readout_label = "RBNS R-value"
measured_number = 2.28

[[record]]
polymer_sequence = "AUGAUG"
measured_target = "PyIESI-1 RRM domain (Plasmodium yoelii PY17X_0911200 aa 795-956, GST fusion)"
readout_label = "RBNS R-value"
measured_number = 7.47

[[record]]
polymer_sequence = "AUCCCU"
measured_target = "PyIESI-1 RRM domain (Plasmodium yoelii PY17X_0911200 aa 795-956, GST fusion)"
readout_label = "RBNS R-value"
measured_number = 0.934

[[record]]
polymer_sequence = "ACGAUG"
measured_target = "PyIESI-1 RRM domain (Plasmodium yoelii PY17X_0911200 aa 795-956, GST fusion)"
readout_label = "RBNS R-value"
measured_number = 2.59

[[record]]
polymer_sequence = "AAUGGU"
measured_target = "PyIESI-1 RRM domain (Plasmodium yoelii PY17X_0911200 aa 795-956, GST fusion)"
readout_label = "RBNS R-value"
measured_number = 0.881

[[record]]
polymer_sequence = "CAUGAA"
measured_target = "PyIESI-1 RRM domain (Plasmodium yoelii PY17X_0911200 aa 795-956, GST fusion)"
readout_label = "RBNS R-value"
measured_number = 0.901

[[record]]
polymer_sequence = "CAGAUA"
measured_target = "PyIESI-1 RRM domain (Plasmodium yoelii PY17X_0911200 aa 795-956, GST fusion)"
readout_label = "RBNS R-value"
measured_number = 1.02

[[record]]
polymer_sequence = "UUGUUA"
measured_target = "PyIESI-1 RRM domain (Plasmodium yoelii PY17X_0911200 aa 795-956, GST fusion)"
readout_label = "RBNS R-value"
measured_number = 0.738

[[record]]
polymer_sequence = "UAUGAA"
measured_target = "PyIESI-1 RRM domain (Plasmodium yoelii PY17X_0911200 aa 795-956, GST fusion)"
readout_label = "RBNS R-value"
measured_number = 0.811

[[record]]
polymer_sequence = "AUGAAG"
measured_target = "PyIESI-1 RRM domain (Plasmodium yoelii PY17X_0911200 aa 795-956, GST fusion)"
readout_label = "RBNS R-value"
measured_number = 1.47

[[record]]
polymer_sequence = "AUGAGC"
measured_target = "PyIESI-1 RRM domain (Plasmodium yoelii PY17X_0911200 aa 795-956, GST fusion)"
readout_label = "RBNS R-value"
measured_number = 1.49

[[record]]
polymer_sequence = "ACGAUA"
measured_target = "PyIESI-1 RRM domain (Plasmodium yoelii PY17X_0911200 aa 795-956, GST fusion)"
readout_label = "RBNS R-value"
measured_number = 1.37

[[record]]
polymer_sequence = "GUGAUG"
measured_target = "PyIESI-1 RRM domain (Plasmodium yoelii PY17X_0911200 aa 795-956, GST fusion)"
readout_label = "RBNS R-value"
measured_number = 4.68

[[record]]
polymer_sequence = "UUCUGC"
measured_target = "PyIESI-1 RRM domain (Plasmodium yoelii PY17X_0911200 aa 795-956, GST fusion)"
readout_label = "RBNS R-value"
measured_number = 1.22

[[record]]
polymer_sequence = "CUGAUU"
measured_target = "PyIESI-1 RRM domain (Plasmodium yoelii PY17X_0911200 aa 795-956, GST fusion)"
readout_label = "RBNS R-value"
measured_number = 5.82

